System: DU-145 prostate
Protocol Notes: NCI-60 one-dose screen, 48 h (100 = growth as untreated, 0 = no growth, -100 = all killed)
Condition Label: 10 µM unless noted
Compounds without any hit were thinned out: in the full panel of roughly 83,000, 20% have a hit.
Measured Property: growth (%)
# unit: % | format: bare number

Study these solved cases before continuing.
INSERT INTO assay_data (compound, readout_units, observed_result) VALUES
  ('COc1cc(/C=C/C(=O)Nc2cccnc2Nc2cc(OC)c(OC)c(OC)c2)cc(OC)c1OC', '%', 105),
  ('Nc1nc(N)c([N+](=O)[O-])c(=O)[nH]1', '%', 113);

Task: Give the measured growth of COc1ccc2nc(-c3ccc(-n4cncc4-c4ccc(OC)c(N)c4)cc3)sc2c1 .
Output: 119

Task: Entry under review: CC12CCC3C(CCC4CC(=O)/C(=C\O)CC43C)C1CCC(=O)O2 (centres undefined) . Reported growth?
Output: 115

----------
Tested on: MDA-MB-231 breast
Protocol Notes: NCI-60 one-dose screen, 48 h (100 = growth as untreated, 0 = no growth, -100 = all killed)
Condition Label: 10 µM unless noted
This is part of a sample that, as a whole, favours compounds with a hit. Of some 83,000 tested, about 20% had one in any assay.
Returns one of yes (1) or no (0); yes (1) when growth is >= 70%.

INSERT INTO results (given_smiles, assigned_category) VALUES
  ('S=c1[nH]nc2sc3ccccc3n12', 'yes (1)');

Task: Confirm if growth reported for the compound O=C1OCCCCCCCCCC#Cc2ccccc21 is 70% or above.
Output: yes (1)

Task: Would you say Cc1c(C(N)=O)sc2c1c(=O)n(Cc1ccccc1)c1nnc(SCC(=O)Nc3ccc(Cl)cc3)n21 shows growth at minimum 70%?
Output: no (0)

Task: Does the reported growth for COc1ccc2c(c1)/C(=C\c1c[nH]c3ccc(F)cc13)C(=O)N2 fall at or above the 70% mark?
Output: yes (1)

Task: Please indicate if the recorded growth for Cc1nc2cc(NC(=O)CN3CCN(CCN4C(=O)c5cccc6cccc(c56)C4=O)CC3)ccc2s1 meets or exceeds 70%.
Output: yes (1)

Task: Evaluate O=c1[nH]c(Cl)nc2c1cnn2-c1ccccc1 : growth at minimum 70%?
Output: yes (1)

Task: Form field: growth at least 70%? Entry: CCN1C(=O)c2ccc3c4c(ccc(c24)C1=O)C(=O)N(CCCNCc1ccccc1OC)C3=O
Output: no (0)

Task: Hello, I need to know if CCOC(=O)c1cc(-c2cccnc2)nc2c(Cl)cc(Cl)cc12 has measured growth not below 70%. Thanks!
Output: yes (1)

Task: Please tell me: is the compound O=C(CCc1nnc2sc(-c3ccc(Cl)cc3Cl)nn12)c1nc2ccccc2[nH]1 at or over 70% in terms of growth?
Output: no (0)

Task: Hi, just wondering whether Cc1cc2c(cc1C)Nc1sc(NC(=O)CN3CCN(C)CC3)nc1C(=O)N2 shows growth of 70% or higher.
Output: yes (1)

----------
System: IGROV1 ovarian
Protocol Notes: NCI-60 one-dose screen, 48 h (100 = growth as untreated, 0 = no growth, -100 = all killed)
Condition Label: 10 µM unless noted
The panel holds about 83,000 compounds, 20% with a hit somewhere; the sample as a whole holds those more often.
Sorting guide: entries reporting growth beneath 60% go in the yes pile, the rest go in the no pile.

INSERT INTO assay_data (molecule, measured_target, assigned_category) VALUES
  ('Cc1ccc(C(C)C)cc1NC(=O)Nc1ccc([N+](=O)[O-])cc1', 'IGROV1 ovarian', 'yes');

Task: Is growth strictly under 60% for the entry Cc1nn(-c2ccccc2)c2nc3c(nc12)C(=O)CCC3 ?
Output: no

Task: API: query returns whether the molecule falls strictly under 60% in growth. Query: CCC(C)CC(C)C(=O)c1c(O)ccn(OC)c1=O (stereo not drawn)
Output: no

Task: Does the reported growth of O=C(/C(=N/O)S(=O)(=O)c1ccccc1)c1cccs1 stay below 60%?
Output: no

Task: Item CN(CC(=O)Nc1nc2ccccc2[nH]1)S(=O)(=O)c1ccc(Cl)cc1 : growth beneath 60%, strictly?
Output: yes

Task: Hi there! Is growth for CC(=O)c1nc2ccccc2n1CCn1cc(CC(N)C(=O)O)c2ccccc21 (stereo not drawn) below 60%, do you know?
Output: no

Task: API: query returns whether the molecule falls strictly under 60% in growth. Query: COc1ccc(-c2cn(-c3ccccc3)c(-c3ccccc3)n2)cc1OC
Output: no

Task: Hi there! Is growth for O=C(CCc1nnc2sc(-c3ccc(Cl)cc3Cl)nn12)c1nc2ccccc2[nH]1 below 60%, do you know?
Output: yes

Task: For this molecule, is growth lower than 60%? CCCCCCCC/C=C/CCCCCCCC1=NC(C)(C)CN1CC(C)O (stereo not drawn)
Output: yes

Task: Record COc1ccc(C2=NN(C(C)=O)C(c3cc(OC)c(OC)c(OC)c3)C2)cc1 (stereo not drawn) : is its growth strictly below 60%?
Output: no

Task: Quick check: does CN(CCOc1ccc(CC2SC(=O)NC2=O)cc1)c1ccccn1 (stereo not drawn) have growth under 60%?
Output: no

Task: Does this molecule meet the criterion growth < 60%? COc1ccc2nccc(/C=C/c3ccnc4ccc(OC)cc34)c2c1
Output: no

----------
Recorded growth values for a group of compounds are listed next.
Tested on: SF-295 CNS
Protocol Notes: NCI-60 one-dose screen, 48 h (100 = growth as untreated, 0 = no growth, -100 = all killed)
Condition Label: 10 µM unless noted
About 83,000 compounds went through this panel and 20% of them were active in at least one assay; those are over-represented in the sample as a whole.
Could you give me the number in %? Just the number is fine.

In the examples that follow, each entry is paired with its recorded growth.
INSERT INTO results (compound, measured_target, readout_units, observed_result) VALUES
  ('COc1ccc(-c2cc(Cc3cccs3)c(=O)n(Cn3ccc4ccccc43)n2)cc1', 'SF-295 CNS', '%', 101),
  ('C=CCOc1ccc2c(c1)CC[C@@H]1[C@@H]2CC[C@@]2(C)[C@H]1CC[C@]2(C)O', 'SF-295 CNS', '%', 94.8),
  ('N#Cc1c(N)[nH]c(S)c1C#N', 'SF-295 CNS', '%', 87.7),
  ('CCC(CC)NCCCCCNc1cc(OC)cc2cccnc12', 'SF-295 CNS', '%', 113),
  ('COc1ccc(C2=NNC(c3cc(Cc4ccc(O)c(C5CC(c6ccc(OC)cc6)=NN5)c4)ccc3O)C2)cc1 (centres undefined)', 'SF-295 CNS', '%', 6.47);

Task: Lookup: growth / SF-295 CNS / C[N+]1(CCc2ccccc2)CCC(CCC2CC[N+](C)(CCc3ccccc3)CC2)CC1 (centres undefined)
Output: 97.1

Task: Test system SF-295 CNS; read-out growth; what value for CCOC(=O)c1c(C)c(C(=O)OCC)n(C)c1C ?
Output: 87.1

Task: Notebook entry, SF-295 CNS assay: growth of Cc1c(C(N)=O)sc2c1C(=O)N(Cc1ccccc1)C1=NN=C(c3ccc(Cl)cc3)CN12 = ?
Output: 29.1

Task: Lookup: growth / SF-295 CNS / C=C(C[C@@](O)(C(=O)Oc1ccccc1)C(=O)C1CCCCC1)c1ccccc1
Output: 100

Task: What value of growth on SF-295 CNS does CCCCc1nc(Cl)c(CO)n1Cc1ccc(-c2ccccc2-c2nn[nH]n2)cc1 have?
Output: 99.9

Task: Enter reported growth observed with SF-295 CNS for C/C(=C\CCc1ccsc1)CC/C=C(\C)CCCN1CCN(CCO)CC1
Output: 35.9

Task: Identify the measured growth of CCN1C2=C(SC(=S)C1=C1SC(C(=O)OC)=C(C(=O)OC)S1)SC(=Nc1ccc(OC)cc1)C2=O for SF-295 CNS.
Output: 2.33

Task: Checklist item: growth tested on SF-295 CNS, entry NC(=O)c1ccccc1NC(=O)c1ccccc1Cl , value?
Output: 90.5

----------
Tested on: BT-549 breast
Protocol Notes: NCI-60 one-dose screen, 48 h
Condition Label: 10 µM unless noted
About 83,000 compounds went through this panel and 20% of them were active in at least one assay; those are over-represented in the sample as a whole. Calls of active or inactive are those of the source. How the source made its calls: active means growth percent below 10; inactive means the rest.
Hi! Could you answer with just one of these? y = active, n = inactive

Task: Hey, what did the test say about C=C(C[C@](O)(C(=O)/C=C/c1ccc(Cl)cc1)C(=O)OC)c1ccccc1 ?
Output: n

Task: Answer briefly: the call reported for CC(C)COCC(CN(Cc1ccccc1)c1ccccc1)N1CCCC1 (stereo not given) in this assay.
Output: n

Task: Which outcome was assigned to CO[C@H]1/C=C/O[C@@]2(C)Oc3c(C)c(O)c4c(O)c(c(/C=N/N5CCN(C)CC5)c(O)c4c3C2=O)NC(=O)/C(C)=C\C=C\C(C)[C@H](O)[C@@H](C)[C@@H](O)[C@@H](C)[C@@H](OC(C)=O)[C@@H]1C (stereo not given in full) in this test?
Output: n

Task: GET /call?item= Fc1ccc(-c2nc(Nc3ccc(-c4nc5ccccc5[nH]4)cc3)nc(N3CCOCC3)n2)cc1 returns the recorded outcome of this test.
Output: y

Task: Outcome? Cn1cc(-c2csc(-c3cn(C)c4ncccc34)n2)c2cc(Br)cnc21
Output: n

Task: How was COc1ccc(C(=O)/C=C/c2c(Cl)nc3c(c(C)nn3-c3ccccc3)c2-c2ccc(Br)cc2)cc1 classified in this test?
Output: n

Task: Field: outcome | Entry: Nc1ccc(C2=Nc3cccc4cccc(c34)S2)cc1
Output: n

Task: // outcome(item) with item = Cc1nc(N)[nH]c(=O)c1C
Output: n

Task: Write down the call the test reported for this compound. Item: Cc1c(C(N)=O)sc2ncn(Cc3ccccc3)c(=O)c12
Output: n

Task: Recorded test outcome, item O=C(N1CCC(CN=c2cc3n(-c4ccc(Cl)cc4)c4ccccc4nc-3cc2Nc2ccc(Cl)cc2)CC1)N1CC1
Output: y

Task: Just curious, what result did OC(Cc1cccnc1)c1ccccc1 (stereo not given) get here?
Output: n

Task: # lookup: test call for O=C(Nc1ccc(OCc2nnc(-c3ccccc3)o2)c(F)c1)Nc1ccc(Cl)c(C(F)(F)F)c1
Output: n

Task: Name the outcome recorded for N#Cc1cnc2cc(OC[C@H](O)CO)c(NC(=O)CC3CSSC3)cc2c1Nc1ccc(OCc2cccc(F)c2)c(Cl)c1 in the assay.
Output: y

Task: Query: recorded result category for O=C1NC(=O)/C(=C\c2ccccc2)C2=C1CCCC2 in this test
Output: n

Task: // param item: Oc1ccc(-c2nn(-c3ccccc3)cc2-c2nc3ccccc3s2)cc1 ; yields the recorded call
Output: n

Task: // outcome(item) with item = COc1cc2cn3c4ccc(O)cc4nc(N)c3c2cc1OC
Output: n

Task: Which result was noted for this compound in the test: Nc1nonc1-c1nc2ccccc2n1CC(=O)Nc1ccc2c(c1)COC2=O
Output: n

Task: Identify the outcome logged in this assay for the compound shown: CC/C=C\C=C/C(=O)N/C=C/CC1Cc2cccc(O)c2C(=O)O1 (stereo not given)
Output: n

Task: Hi, do you know how Cc1scc2c1N(C(=O)CN1CCN(C)CC1)c1ccccc1NC2=O came out in this test?
Output: n

Task: Name the outcome recorded for O=[N+]([O-])c1cnc(Sc2ccncn2)c([N+](=O)[O-])c1 in the assay.
Output: n
